System: H9c2
protocol details: cardiomyocyte survival under oxidative or metabolic stress – cell-based, panel, H9c2 and HL-1, ATP luminescence, set 2, SAR follow-up (AID 651871);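 note: cells exposed to stressor for 2 h before ATP readout; potency for protection of cells against peroxide damage not for cytotoxicity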
reported conditions: H9c2/HL-1 cardiomyocytes, H2O2 oxidative stress, with H2O2, mean of runs
measured property: IC50

Query :: Quick one: IC50 of CCOC(=O)c1cccc(NC(=O)CNC(=O)c2cc(-c3cc(OC)c(OC)c(OC)c3)nc3ccccc23)c1 ?
Result :: 280 nM

Query :: Quick one: IC50 of COc1cc(-c2cc(C(=O)Nc3cccc(C(=O)NCc4ccccc4)c3)c3ccccc3n2)cc(OC)c1OC ?
Result :: 411 nM
